System: Mus musculus
PROCEDURE_DETAILS: Toxicity in CDF1 mouse allografted with mouse P388 cells assessed as change in body weight at 5 mg/kg administered daily for 6 days starting 24 hrs after tumor implantation (reference value: -2.4%)
Type: organism-based
Set-up: dose 5 mg/kg
MEASUREMENT_CONTEXT: in vivo
VALUE_KIND: Activity (%)

{"COMPOUND_STRING": "C=CCNC(=S)N/N=C1/CCCc2cccnc21", "VALUE_KIND": "Activity", "TEST_VALUE": 0}
{"COMPOUND_STRING": "CNC(=S)N/N=C1/CCCc2cccnc21", "VALUE_KIND": "Activity", "TEST_VALUE": -7.7}
{"COMPOUND_STRING": "CNC(=S)N/N=C1\\CCCc2cccnc21", "VALUE_KIND": "Activity", "TEST_VALUE": -12}
{"COMPOUND_STRING": "NC(=S)N/N=C1/CCCc2cccnc21", "VALUE_KIND": "Activity", "TEST_VALUE": 6.7}
{"COMPOUND_STRING": "NC(=S)N/N=C1\\CCCc2cccnc21", "VALUE_KIND": "Activity", "TEST_VALUE": -3.8}
{"COMPOUND_STRING": "C=CCNC(=S)N/N=C1\\CCCc2cccnc21", "VALUE_KIND": "Activity", "TEST_VALUE": -8.4}
